- system.under.test: recombinant Rhesus Macaque IL-18 (Rhesus Macaque, UniProt Q9BGI5 37-193)
- method: cell-based or functional assay
Under this convention, rule met denotes IC50, IFNγ release KG-1 cell assay, Rhesus Macaque IL-18 strictly below 2 nM and rule not met denotes IC50, IFNγ release KG-1 cell assay, Rhesus Macaque IL-18 at or above 2 nM.

These recorded examples may help you get a feel for the data.
binder	class.name
Antibody 12 GL IgG1TM (antibody, V domains shown, Human IgG1 (gamma 1 (f)) constant domains with three single amino acid substitutions (TM, Oganesyan et al 2008) and human kappa Km3 light chain constant domain; Expressed in CHO cells; also called germlined Antibody 12 IgG1TM) VH: QVQLQESGPGLVKPSETLSLTCTVSGGSISADGYYWSWIRQPPGKGLEWIGSLYYSGSTYYNPSLKGRVTISGDTSKNQFSLKLSSVTAADTAVYYCARTPAYFGQDRTDFFDVWGRGTLVTVSS VL: DIQMTQSPSTLSASVGDRVTITCRASQGISSWLAWYQQKPGKAPKVLIYKASTLESGVPSRFSGSGSGTEFTLTISSLQPDDFATYYCQQSHHPPWTFGQGTKLEIK	rule met
Antibody 11 GL IgG2 (antibody, V domains shown) VH: QVQLQESGPGLVKPSETLSLTCTVSGGSISADGYYWSWIRQPPGKGLEWIGSLYYSGSTYYNPSLRGRVTISGDTSKNQFSLKLSSVTAADTAVYYCARTPAYFGQDRTDFFDVWGRGTLVTVSS VL: DIQMTQSPSTLSASVGDRVTITCRASQGISSWLAWYQQKPGKAPKVLIYKASTLESGVPSRFSGSGSGTEFTLTISSLQPDDFATYYCQQSHHPPWTFGQGTKLEIK	rule met
Antibody 8 GL IgG2 (antibody, V domains shown, Germlined; whole human IgG2, kappa light chain) VH: QVQLQESGPGLVKPSETLSLTCTVSGGSISAGGYYWSWIRQPPGKGLEWIGSLYYSGSTYYNPSLKGRVTISGDTSKNQFSLKLSSVTAADTAVYYCARTPAYFGQDRTDFFDVWGRGTLVTVSS VL: DIQMTQSPSTLSASVGDRVTITCRASQGISSWLAWYQQKPGKAPKVLIYKASTLESGVPSRFSGSGSGTEFTLTISSLQPDDFATYYCQQSHHPPWTFGQGTKLEIK	rule met

Query: State whether 2 nM exceeds IC50, IFNγ release KG-1 cell assay, Rhesus Macaque IL-18 recorded for Antibody 12 GL IgG2 (antibody, V domains shown, Germlined; whole human IgG2, kappa light chain) VH: QVQLQESGPGLVKPSETLSLTCTVSGGSISADGYYWSWIRQPPGKGLEWIGSLYYSGSTYYNPSLKGRVTISGDTSKNQFSLKLSSVTAADTAVYYCARTPAYFGQDRTDFFDVWGRGTLVTVSS VL: DIQMTQSPSTLSASVGDRVTITCRASQGISSWLAWYQQKPGKAPKVLIYKASTLESGVPSRFSGSGSGTEFTLTISSLQPDDFATYYCQQSHHPPWTFGQGTKLEIK .
Response: rule met

Query: State whether 2 nM exceeds IC50, IFNγ release KG-1 cell assay, Rhesus Macaque IL-18 recorded for Antibody 7 GL IgG2 (antibody, V domains shown) VH: QVQLQESGPGLVKPSETLSLTCTVSGGSISSGGYYWSWIRQPPGKGLEWIGSIYYSGSTYYNPSLKSRVTISGDTSKNQFSLKLSSVTAADTAVYYCARTPAYFGQDRTDFFDVWGRGTLVTVSS VL: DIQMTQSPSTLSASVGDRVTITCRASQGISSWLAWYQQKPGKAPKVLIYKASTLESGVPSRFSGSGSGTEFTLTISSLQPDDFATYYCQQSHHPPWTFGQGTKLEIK .
Response: rule not met

Query: State whether 2 nM exceeds IC50, IFNγ release KG-1 cell assay, Rhesus Macaque IL-18 recorded for Antibody 6 GL IgG2 (antibody, V domains shown) VH: QVQLQESGPGLVKPSETLSLTCTVSGGSISSGGYYWSWIRQPPGKGLEWIGSIYYSGSTYYNPSLKSRVTISGDTSKNQFSLKLSSVTAADTAVYYCARTPAYFGQDRTDFFDVWGRGTLVTVSS VL: DIQMTQSPSTLSASVGDRVTITCRASQGISSWLAWYQQKPGKAPKVLIYKASTLESGVPSRFSGSGSGTEFTLTISSLQPDDFATYYCANIAFPPWTFGQGTKLEIK .
Response: rule not met
